Origin of values: patent US20040018971A1

Biological target: HLA-A*2401 (purified HLA class I molecule) (human)
Experiment: competition with 125I-labelled standard peptide for purified HLA, gel filtration
Conditions: scale: ratio
PARAMETER MEASURED: relative binding ratio

(A) EYVNARHCL [HER2/neu peptide, position 553, 9 amino acids]
(B) EYLVPQQGFF [HER2/neu peptide, position 1022, 10 amino acids]
Ask: For the pair A and B , which entry has the numerically smaller recorded relative binding ratio? Your choice should be expressed through its label.
Reply: A

(I) GMGAAKGLQSL [HER2/neu peptide, position 1091, 11 amino acids]
(II) HFNHSGICEL [HER2/neu peptide, position 257, 10 amino acids]
(III) IMVKCWMI [HER2/neu peptide, position 954, 8 amino acids]
Ask: Please put the entries in order of rising relative binding ratio. Reply: labels, ordered per the request.
Reply: I, II, III
(I: -0.0003, II: 0.0002, III: 0.021)
